target: Cytochrome P450 3A4 (Homo sapiens) (UniProt P08684); assay: qHTS Assay for Activators of Cytochrome P450 3A4 (AID 885); conditions: recombinant CYP3A4, Luciferin-PPXE luminescence, 60 min; series mostly up to 57.1 µM; further: nearly all actives have a fitted effect of over 65% in size
Sequence (P08684 whole entry, looked up): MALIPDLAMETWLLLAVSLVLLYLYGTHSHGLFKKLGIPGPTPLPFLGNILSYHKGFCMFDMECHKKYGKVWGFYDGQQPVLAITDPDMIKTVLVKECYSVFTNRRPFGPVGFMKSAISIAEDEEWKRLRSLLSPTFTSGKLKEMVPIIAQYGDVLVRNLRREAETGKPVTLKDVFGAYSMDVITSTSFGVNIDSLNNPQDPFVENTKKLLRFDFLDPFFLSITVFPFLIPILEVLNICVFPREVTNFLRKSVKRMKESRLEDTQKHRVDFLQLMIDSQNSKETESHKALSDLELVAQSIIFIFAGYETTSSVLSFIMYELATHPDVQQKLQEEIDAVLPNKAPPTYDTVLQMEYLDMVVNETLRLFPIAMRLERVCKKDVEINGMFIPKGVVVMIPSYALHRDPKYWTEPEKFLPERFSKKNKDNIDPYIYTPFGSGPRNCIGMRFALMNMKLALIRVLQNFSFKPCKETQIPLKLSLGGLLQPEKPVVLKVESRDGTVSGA
Active and inactive are the calls of the source. The call rests on the fitted dose curve; in most records, active means well fitted activation curve with a large enough effect; inconclusive means small, poorly fitted or top-dose-only effect; inactive means no such curve, though single readings can be large or run the other way.
Hi! Could you answer with just one of these? active, inactive

{"columns": ["compound", "classLabel"],
 "data": [
  ["COC(=O)c1c(C)cc(OC)cc1O", "inactive"],
  ["C=Cc1c(C)c2cc3nc(cc4[nH]c(cc5nc(cc1[nH]2)C(C)=C5CCC(=O)O)c(CCC(=O)OC)c4C)[C@@]1(C)C3=CC=C(C(=O)OC)[C@H]1C(=O)OC (tested in a mixture with another compound)", "inactive"],
  ["C=C[C@]1(C)CC(=O)[C@@]2(O)[C@@]3(C)C(O)CCC(C)(C)C3C(O)C(OC(C)=O)[C@@]2(C)O1 (some centres undefined)", "inactive"]
]}

**Query** Identify the outcome logged in this assay for the compound shown: CC1(C)CC2/C(CO)=C/C=C/[C@](C)(O)CC[C@]21O (some centres undefined)
**Result** inactive

**Query** Identify the outcome logged in this assay for the compound shown: C=CCCCCCCCCCCCC(O)CC(O)COC(C)=O (centres undefined)
**Result** inactive

**Query** Identify the outcome logged in this assay for the compound shown: CC(=O)OC1CC(OC(C)=O)[C@]2(C)C(CC(=O)[C@]3(C)C2CC[C@@]2(C)C(c4ccoc4)OC(=O)C4O[C@@]423)C1(C)C (some centres undefined)
**Result** inactive

**Query** Identify the outcome logged in this assay for the compound shown: CCC(C)C(=O)OC1CCC=C2C=CC(C)C(CCC3CC(O)CC(=O)O3)[C@@H]21 (some centres undefined)
**Result** inactive

**Query** Identify the outcome logged in this assay for the compound shown: COc1ccc(C(C)C(=O)c2ccc(O)cc2O)cc1 (centres undefined)
**Result** inactive

**Query** Identify the outcome logged in this assay for the compound shown: O=C(/C=C/c1ccc(O)cc1)c1ccccc1O
**Result** inactive

**Query** Identify the outcome logged in this assay for the compound shown: CC(=O)OCC(=O)C1CCC2C3CCC4=CC(=O)CC[C@@]4(C)C3CC[C@]12C (some centres undefined)
**Result** active

**Query** Identify the outcome logged in this assay for the compound shown: N#Cc1cccc(-c2cncnc2-n2ccnc2)c1
**Result** inactive

**Query** Identify the outcome logged in this assay for the compound shown: Cc1noc(C)c1-c1nc(Nc2ccncc2)c2ccccc2n1
**Result** inactive

**Query** Identify the outcome logged in this assay for the compound shown: COC(=O)/C(=C1\OC(=O)C(c2ccccc2)C1=O)c1ccccc1 (centres undefined)
**Result** inactive

**Query** Identify the outcome logged in this assay for the compound shown: CC1(C)C(O)C=C[C@@]2(C)C1CC(=O)O[C@@]1(C)C3=CC(=O)OC(c4ccoc4)[C@]3(C)CCC21 (some centres undefined)
**Result** inactive

**Query** Identify the outcome logged in this assay for the compound shown: Cc1cc(O)cc(O)c1C(=O)O
**Result** inactive

**Query** Identify the outcome logged in this assay for the compound shown: CC(=O)OC[C@@]1(O)C[C@]23CCC4c5ccoc5CC[C@@]4(C)C2CCC1C3 (some centres undefined)
**Result** inactive

**Query** Identify the outcome logged in this assay for the compound shown: C#C[C@@]1(O)CCC2C3CCC4=CC(=O)CCC4C3CC[C@@]21CC (some centres undefined)
**Result** inactive

**Query** Identify the outcome logged in this assay for the compound shown: CC(C)(C)CC(C)(C)c1ccc(OCOCCOCCO)c(Cc2cc(C(C)(C)CC(C)(C)C)cc(Cc3cc(C(C)(C)CC(C)(C)C)ccc3OCOCCOCCO)c2OCOCCOCCO)c1
**Result** inactive

**Query** Identify the outcome logged in this assay for the compound shown: CC1(C)CC2C1CCC1(C)OC2(C)CCC1O (centres undefined)
**Result** inactive
